# experimental target: kinases (Homo sapiens, UniProt P00533, G719C)
# Construct: purchased Eurofins/DiscoveRx; host or cells: E. coli BL21-derived host (T7 phage display) for most kinases; HEK-293 for the rest
# assay text: KINOMEscan kinase binding assay (Eurofins/DiscoveRx), % Ctrl
# stated conditions: 1 μM; target EGFR(G719C)
# Procedure: Kinase binding assays were performed at Eurofins/DiscoveRx using the general KINOMEscan Protocol (Fabian, M. A. et al., “A small molecule-kinase interaction map for clinical kinase inhibitors,” Nat. Biotechnol. 2005, 23(3):329-36). For most assays, kinase-tagged T7 phage strains were prepared in an E. coli host derived from the BL21 strain. […] The kinase concentration in the eluates was measured by qPCR. […]
measurement name: % Ctrl, EGFR(G719C) (% Ctrl)

compound smiles	readout value
Cc1cc2c([nH]1)/C=C1\C(=O)Nc3ccc(cc31)-c1c(noc1C(C)C)COCCN(C)C2=O	89
CN1CCOc2cc3c(cc2Cl)NC(=O)/C3=C\c2[nH]ccc2C(=O)N(C)CC1	82
Cc1cc2c([nH]1)/C=C1\C(=O)Nc3cc(Cl)c(cc31)SCCOCCN(C)C2=O	100
Cc1cc2c([nH]1)/C=C1\C(=O)Nc3cnc(cc31)-c1cnn(C)c1CN(C)CCN(C)C2=O	100
Cc1cc2c([nH]1)/C=C1\C(=O)Nc3ccc(cc31)-c1cnn(C)c1OCCCN(C)C2=O	98

The values you see were collected from patent US20230257396A1.
